The entries below are paired with their reported LEPTNO % Inhn. Plus Copper Observed.
Tested on: Leptosphaeria nodorum (LEPTNO)
experimentNotes: In vitro fungitoxicity of hydrazones with and without copper towards Leptosphaeria nodorum (Example 26)
Format: cell-based
studyConditions: copper-plus medium (CuCl2 10 μM); test compound Concn. 0.05 μg/mL; 72 h at 25° C.
parameterMeasured: LEPTNO % Inhn. Plus Copper Observed (%)

compoundStructure | scaleUnit | assayValue
O=C(N/N=C/c1ccc(Cl)cc1O)c1ccccc1C(F)(F)F | % | 95.5
COc1cccc(C(=O)N/N=C(\C)c2cc(Cl)cc(Cl)c2O)c1O | % | 93.2
COc1cccc(/C(C)=N/NC(=O)c2ccccc2Cl)c1O | % | 98.0
O=C(N/N=C/c1cc(C(F)(F)F)ccc1O)c1ccccc1O | % | 100.0
Cc1ccc(C(=O)N/N=C/c2ccc(Cl)c(Cl)c2O)c(O)c1 | % | 95.8
C/C(=N\NC(=O)c1c(C)cccc1O)c1cc(Cl)cc(Cl)c1O | % | 97.5
C/C(=N\NC(=O)c1ccc(C)cc1)c1cc(C(F)(F)F)ccc1O | % | 96.2
O=C(N/N=C/c1ccc(Cl)cc1O)c1ccc(Cl)cc1 | % | 97.9
Cc1ccc(C(=O)N/N=C/c2c(Cl)ccc(Cl)c2O)cc1 | % | 96.6
C/C(=N\NC(=O)c1ccccc1Br)c1cccc([N+](=O)[O-])c1O | % | 95.8
C/C(=N\NC(=O)c1cccc(Cl)c1)c1cc(Cl)ccc1O | % | 96.2
O=C(N/N=C/c1c(C(F)(F)F)ccc(Cl)c1O)c1ccccc1 | % | 96.6
O=C(N/N=C/c1cccc(C(F)(F)F)c1O)c1cccc([N+](=O)[O-])c1 | % | 96.9
C/C(=N\NC(=O)c1ccccc1C)c1cc(C)ccc1O | % | 97.8
N#Cc1ccc(C(=O)N/N=C/c2cc(Cl)cc(Cl)c2O)cc1 | % | 96.6
COc1ccc(/C(C)=N/NC(=O)c2ccccc2Cl)c(O)c1OC | % | 92.5
C/C(=N\NC(=O)c1ccc(Cl)cc1)c1cc(Br)cc(Br)c1O | % | 97.9
O=C(N/N=C/c1c(Cl)ccc(Cl)c1O)c1ccc(F)cc1 | % | 96.9

----------
Tested on: Leptosphaeria nodorum (LEPTNO)
experimentNotes: In vitro fungitoxicity of hydrazones with and without copper towards Leptosphaeria nodorum (Example 26)
Assay type: cell-based
studyConditions: Parastagonospora nodorum, 72 h, compound 0.05 μg/mL, copper-minus medium, 72 h at 25° C.; read-out: LEPTNO % Inhn. Minus Copper Observed

compoundStructure | inhibition of growth at 0.05 µg/mL
O=C(N/N=C/c1cc(Cl)cc(Cl)c1O)c1ccc(-c2ccccc2)cc1 | 3%
C/C(=N\NC(=O)c1ccccc1Cl)c1cc(Br)ccc1O | 2.2%
C/C(=N\NC(=O)c1ccccc1)c1cccc([N+](=O)[O-])c1O | 1.2%
C/C(=N\NC(=O)c1ccc(Cl)cc1)c1cc(Cl)cc(Cl)c1O | 9.7%
C/C(=N\NC(=O)c1ccc(Cl)cc1)c1cccc([N+](=O)[O-])c1O | 0%
O=C(N/N=C/c1cc(Br)cc(Br)c1O)c1ccc(Br)cc1 | 10.6%
O=C(N/N=C/c1c(F)ccc(F)c1O)c1ccccc1 | 0%
C/C(=N\NC(=O)c1ccccc1)c1cc(Cl)cc(Cl)c1O | 7.3%
COc1ccc(/C=N/NC(=O)c2ccc(Cl)cc2)c(O)c1 | 0%
